// provenance: patent US20220000841A1

# measured_target: NDM-1 (Klebsiella pneumoniae, UniProt C7C422)
# Sequence (C7C422 29-270, looked up, species assumed): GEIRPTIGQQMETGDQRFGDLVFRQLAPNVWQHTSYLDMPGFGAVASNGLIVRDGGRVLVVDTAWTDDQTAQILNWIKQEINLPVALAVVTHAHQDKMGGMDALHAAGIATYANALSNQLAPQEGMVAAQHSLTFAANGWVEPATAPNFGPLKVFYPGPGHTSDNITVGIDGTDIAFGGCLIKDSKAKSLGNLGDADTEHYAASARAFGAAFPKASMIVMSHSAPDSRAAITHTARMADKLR
# assay_method_text: Enzymatic assay for determination of inhibition constants, reporter substrate method, purified NDM-1;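 further: purified enzyme activity followed as absorbance change from reporter substrate hydrolysis on a UV-Vis spectrophotometer or plate reader, 50 mM HEPES pH 7.5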
# Assay type: biochemical
# measurement_conditions: at 100 μM (maximal tested concentration)
property_label: % inhibition NDM-1 (% at 100 μM)
Numbers only, in % at 100 μM.

| compound | % inhibition NDM-1 [% at 100 μM] |
| --- | --- |
| O=C(O)C(CSCCn1c(-c2cccc(-c3ccccc3)c2)n[nH]c1=S)c1ccccc1 (centres unmarked) | 77 |

Batch of 4 compounds: report % inhibition NDM-1 for each.
1. O=[N+]([O-])c1ccccc1CSCCn1c(-c2ccccc2)n[nH]c1=S
2. S=c1[nH]nc(-c2ccccc2)n1CCSCCc1ccccc1
3. O=[N+]([O-])c1ccc(CSCCn2c(-c3ccccc3)n[nH]c2=S)cc1
4. O=C(O)CCSCCn1c(-c2ccccc2)n[nH]c1=S

A:
[69, 92, 95, 60]

====

For each entry below, report its Ki value.
# measured_target: VIM-2 (Escherichia coli, UniProt Q5U7L7)
# assay_method_text: Enzymatic assay for determination of inhibition constants, reporter substrate method, purified VIM-2
# Format: biochemical
# measurement_conditions: isolated MBL, competitive inhibition model; read-out: Ki VIM-2

Answered examples (3):
| compound | measured_value |
| --- | --- |
| O=C(O)CCCCCn1c(-c2ccccc2)n[nH]c1=S | < 1000 nM |
| O=C1OC(Cn2c(-c3ccccc3)n[nH]c2=S)c2ccccc21 (stereo not shown) | > 100000 nM |
| COc1ccc(O)c(-c2n[nH]c(=S)n2CCc2ccccc2)c1 | 1000 to 10000 nM |

Provide the reported Ki of each entry below, same order.
1. O=C(O)c1ccccc1CNn1c(-c2ccccc2)n[nH]c1=S
2. CCCCn1c(-c2ccccc2)n[nH]c1=S
3. O=C(O)c1ccccc1CCn1c(-c2ccc3ccccc3c2)n[nH]c1=S
4. O=C(O)CC(Cn1c(-c2ccccc2)n[nH]c1=S)c1ccc(Cl)cc1 (stereo not shown)
5. S=c1[nH]nc(-c2ccccc2)n1CCc1ccc(OCc2ccccc2)cc1

A:
1: 1000 to 10000 nM; 2: 1000 to 10000 nM; 3: < 1000 nM; 4: 1000 to 10000 nM; 5: 10000 to 100000 nM

====

# measured_target: UniProt Q5U7L7
# assay_method_text: Enzymatic assay for determination of inhibition constants, reporter substrate method, purified VIM-2
# Assay type: biochemical
# measurement_conditions: isolated MBL, competitive inhibition model; read-out: Ki VIM-2
property_label: Ki

| compound_structure | Ki |
| --- | --- |
| Cc1nnsc1-c1n[nH]c(=S)n1CCc1ccccc1C(=O)O | > 100 µM |
| S=c1[nH]nc(-c2ccccc2)n1CCc1ccccc1 | > 100 µM |
| S=c1[nH]nc(-c2ccccc2)n1CCCc1ccccc1 | > 100 µM |
| O=C(O)c1ccccc1CCn1c(-c2ccc(OCc3ccccc3)cc2)n[nH]c1=S | < 1 µM |
| O=C(O)CCCn1c(-c2ccccc2)n[nH]c1=S | 1 to 10 µM |

State recorded Ki for all listed compounds.
1. Cn1cccc1-c1n[nH]c(=S)n1CCSCc1ccccc1
2. O=[N+]([O-])c1ccc(CSCCn2c(-c3ccccc3)n[nH]c2=S)cc1
3. Sc1nnc(-c2ccccc2)n1Cc1ccccc1
4. O=C(O)CC1(Cn2c(-c3ccccc3)n[nH]c2=S)CCCCC1
5. Oc1ccc(CCn2c(-c3ccccc3)n[nH]c2=S)cc1

A:
["< 1 µM", "1 to 10 µM", "> 100 µM", "1 to 10 µM", "1 to 10 µM"]

====

# measured_target: VIM-2 (Escherichia coli)
# assay_method_text: Enzymatic assay for determination of inhibition constants, reporter substrate method, purified VIM-2
# Format: biochemical
# measurement_conditions: isolated MBL, competitive inhibition model; read-out: Ki VIM-2
property_label: Ki

For every item below, please supply its Ki.
1. Oc1ccc(CCn2c(-c3cccc(-c4ccccc4)c3)n[nH]c2=S)c(O)c1
2. S=c1[nH]nc(-c2ccccc2)n1CCSc1ccccc1
3. S=c1[nH]nc(-c2ccccc2)n1CCSCCc1ccccc1
4. O=C(O)C(CSCCn1c(-c2cccc(-c3ccccc3)c2)n[nH]c1=S)c1ccccc1 (stereo not shown)
5. O=C(O)c1ccccc1CCn1c(-c2cccs2)n[nH]c1=S
6. O=C(O)CCSCCn1c(-c2ccccc2)n[nH]c1=S
7. COc1ccc(O)c(-c2n[nH]c(=S)n2Cc2ccccc2)c1

A:
1. 1000 to 10000 nM
2. 1000 to 10000 nM
3. 1000 to 10000 nM
4. < 1000 nM
5. 1000 to 10000 nM
6. 1000 to 10000 nM
7. 1000 to 10000 nM

====

# measured_target: IMP-1 (Serratia marcescens, UniProt P52699)
# Sequence (P52699 19-246, looked up, species assumed): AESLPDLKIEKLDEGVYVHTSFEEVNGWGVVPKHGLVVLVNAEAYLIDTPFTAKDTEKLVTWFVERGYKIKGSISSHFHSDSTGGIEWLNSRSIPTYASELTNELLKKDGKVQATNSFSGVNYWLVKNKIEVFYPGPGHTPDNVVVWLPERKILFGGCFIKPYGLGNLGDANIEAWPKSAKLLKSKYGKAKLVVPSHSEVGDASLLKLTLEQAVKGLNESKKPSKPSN
# assay_method_text: Enzymatic assay for determination of inhibition constants, reporter substrate method, purified IMP-1;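 further: purified IMP-1 (1-70 nM) hydrolysing a reporter substrate, initial rates followed as absorbance change at 260, 300 or 482 nm in 50 mM HEPES pH 7.5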
# Assay type: biochemical
# measurement_conditions: at 200 μM (maximal tested concentration)
property_label: % inhibition IMP-1 (% at 200 μM)
Give bare numbers, in % at 200 μM.

Dear colleague, could you please provide % inhibition IMP-1 for the compounds listed below?
1. [N-]=[N+]=NCCn1c(-c2ccccc2)n[nH]c1=S [Compound 49]
2. Cc1nnsc1-c1n[nH]c(=S)n1CCc1ccccc1C(=O)O [Compound 23]

A:
1. 90
2. 95

====

# measured_target: VIM-2 (Escherichia coli, UniProt Q5U7L7)
# assay_method_text: Enzymatic assay for determination of inhibition constants, reporter substrate method, purified VIM-2
# Format: biochemical
# measurement_conditions: as listed in Table 2; read-out: Ki on VIM-2
property_label: Ki

Consider the following illustrative entries.
| compound | measured_target | property_label | measured_value |
| --- | --- | --- | --- |
| O=C(O)c1ccccc1CCn1c(-c2cccs2)n[nH]c1=S | VIM-2 (Escherichia coli, UniProt Q5U7L7) | Ki | 1000 to 10000 nM |
| O=C(O)c1ccccc1CNn1c(-c2ccccc2)n[nH]c1=S | VIM-2 (Escherichia coli, UniProt Q5U7L7) | Ki | 1000 to 10000 nM |

Answer for every listed entry: what is its Ki? The entries follow.
1. O=C(O)c1ccccc1CCn1c(-c2ccccc2)n[nH]c1=S
2. O=C(O)c1ccccc1CCn1c(-c2ccco2)n[nH]c1=S
3. Cc1ccccc1-c1n[nH]c(=S)n1/N=C/c1ccccc1C(=O)O [II, reference compound]
4. O=C(O)CCCn1c(-c2ccccc2)n[nH]c1=S
5. COc1ccc(O)c(-c2n[nH]c(=S)n2CCc2ccccc2C(=O)O)c1
6. Cc1ccccc1-c1n[nH]c(=S)n1CCc1ccccc1C(=O)O

A:
1: < 1000 nM; 2: < 1000 nM; 3: 1000 to 10000 nM; 4: 1000 to 10000 nM; 5: < 1000 nM; 6: < 1000 nM

Ki reading for `O=C(O)CCCCn1c(-c2ccccc2)n[nH]c1=S` : 1000 to 10000 nM

====

# measured_target: VIM-1 (Pseudomonas aeruginosa, UniProt A0A0F7KYQ8)
# assay_method_text: Enzymatic assay for determination of inhibition constants, reporter substrate method, purified VIM-1;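 further: initial hydrolysis rates of a reporter β-lactam (imipenem, meropenem, cefotaxime or nitrocefin) followed by absorbance change, purified enzyme at 1–70 nM in 50 mM HEPES pH 7.5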
# Assay type: biochemical
# measurement_conditions: isolated MBL, competitive inhibition model
Answer each item with its documented Ki.

Examples with their reported Ki follow.
| compound_structure | measured_target | Ki |
| --- | --- | --- |
| Fc1ccc(CSCCn2c(-c3ccccc3)n[nH]c2=S)cc1 | VIM-1 (Pseudomonas aeruginosa, UniProt A0A0F7KYQ8) | 1 to 10 µM |
| O=[N+]([O-])c1ccccc1CSCCn1c(-c2ccccc2)n[nH]c1=S | VIM-1 (Pseudomonas aeruginosa, UniProt A0A0F7KYQ8) | < 1 µM |
| Cn1cccc1-c1n[nH]c(=S)n1CCSCc1ccccc1 | VIM-1 (Pseudomonas aeruginosa, UniProt A0A0F7KYQ8) | < 1 µM |

The record that follows has no Ki shown yet.
Readout Ki for `S=c1[nH]nc(-c2ccccc2)n1CCSCCc1ccccc1` , test system VIM-1 (Pseudomonas aeruginosa, UniProt A0A0F7KYQ8), was < 1 µM

====

# measured_target: VIM-2 (Escherichia coli, UniProt Q5U7L7)
# assay_method_text: Enzymatic assay for determination of inhibition constants, reporter substrate method, purified VIM-2;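 further: purified VIM-2 hydrolysing a reporter substrate (imipenem, meropenem, cefotaxime or nitrocefin), reaction rate read as absorbance change, HEPES 50 mM at pH 7.5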
# Type: biochemical
# measurement_conditions: isolated MBL, competitive inhibition model; read-out: Ki VIM-2
pKi: −log10 of the molar value.
Exercise: state measured pKi for each of the molecules provided.

Record excerpt, results attached:
| compound_structure | pKi |
| --- | --- |
| S=c1[nH]nc(-c2ccccc2)n1CCSCc1ccccc1 | 5.00 to 6.00 |
| Cc1ccccc1-c1n[nH]c(=S)n1CCSCc1ccccc1 | > 6.00 |
| FC(F)(F)c1cc(SCCn2c(-c3ccccc3)n[nH]c2=S)c2ccccc2n1 | < 4.00 |
| CCCCCCn1c(-c2ccccc2)n[nH]c1=S | 5.00 to 6.00 |

// batch mode: one pKi value per listed entry
1. O=C(O)c1ccccc1CNn1c(-c2ccc3ccccc3c2)n[nH]c1=S
2. O=C(O)CCCCn1c(-c2ccccc2)n[nH]c1=S
3. O=C(O)c1ccccc1CCn1c(-c2ccc(Cl)s2)n[nH]c1=S

A:
1. 5.00 to 6.00
2. 5.00 to 6.00
3. 5.00 to 6.00

Return reported pKi values for all items listed beneath this line.
1. O=C(O)c1ccccc1CCn1c(-c2ccccc2)n[nH]c1=S
2. COc1ccc(O)c(-c2n[nH]c(=S)n2CCc2ccccc2C(=O)O)c1

A:
1. > 6.00
2. > 6.00
